# conditions: 10 min, 10 μM
Please go through the items and note down their Prodrug (%) remaining, Human Plasma.
One number for each entry, in %.

Example entries begin here.
>  <compound>
COCCCCC(=O)OC1=C[C@@H]2N(C)CC[C@]2(c2ccc(OC)c(OC)c2)CC1 [Compound 404]

>  <quantitative.readout>
22.9

$$$$
>  <compound>
CCC(C)C(=O)OC1=C[C@@H]2N(C)CC[C@]2(c2ccc(OC)c(OC)c2)CC1 (some centres unmarked) [Compound 425]

>  <quantitative.readout>
6.5

$$$$

Continue with the compound presented below.
Give me measured Prodrug (%) remaining, Human Plasma, please, for this compound: COc1ccc([C@@]23CCC(OC(=O)CCC(C)C)=C[C@@H]2N(C)CC3)cc1OC [Compound 399] 5.6
